- Test name: small-molecule microarray binders of probe aCHRDL2, primary screen, biochemical, biotinylated probe, 635/667 nm fluorescence (AID 1100)
- Condition notes: higher = more signal
Give condition met when the value for composite z-score is at least 0.8. Give condition not met when it is less.

Qu. Please tell me: is the molecule C=C(/C=C/CNS(=O)(=O)c1ccc(C)cc1)[C@H](O)[C@H]1CCCN1S(=O)(=O)c1ccccc1[N+](=O)[O-] at or over 0.8 in terms of composite z-score?
Ans. condition not met

Qu. Determine whether measured composite z-score meets or exceeds 0.8 for CC(C)(C)N1CC=CC23O[C@@H]4C=CCOC(=O)[C@@H]4[C@H]2C(=O)N(CCCO)[C@@H]3C1=O (stereo partly drawn)
Ans. condition not met

Qu. In plain terms: is recorded composite z-score at least 0.8 for COCCOC(=O)N1C(=O)[C@@]2(c3cc(C#CCC(C(=O)OC)C(=O)OC)ccc31)[C@H](c1ccc(OCCO)cc1)N1[C@H](c3ccccc3)[C@H](c3ccccc3)OC(=O)[C@H]1[C@@H]2C(=O)N1CCN(c2ncccn2)CC1 ?
Ans. condition not met

Qu. Entry COc1ccc([Si](C)(C)[C@@H]2[C@@H](CC(=O)N3CCC[C@H]3CO)O[C@]3(C(=O)N(Cc4ccc(N5C(=O)c6cccc7cccc5c67)cc4)c4ccccc43)[C@H]2C)cc1 : is its composite z-score no less than 0.8?
Ans. condition not met

Qu. Does the reported composite z-score for Cc1ccc(S[C@]2(C(=O)NC3CC3)CC(=O)N(Cc3ccccc3Cl)[C@@H]2c2ccc(CO)cc2I)cc1 fall at or above the 0.8 mark?
Ans. condition met

Alright, here's another molecule for you.
Qu. Reported composite z-score at or above 0.8? O=C1NC(=O)C2C1C=CC(C(O)c1ccc(Br)cc1)N2Nc1ccccn1 (stereo not drawn)
Ans. condition not met

---

- Test name: binders from COS7 lysate, DM2A8 probe, primary screen, torsin A project, cell lysate, small-molecule microarray, fluorescence 635/667 (AID 1065)
- Condition notes: higher = more signal, COS7 lysate expressing mutant human TOR1A
Readout name: composite z-score
Numbers only.

Qu. I would be grateful if you could share the reported composite z-score for [N-]=[N+]=Nc1ccccc1[C@@H]1OC(c2ccc(OCCCO)cc2)=N[C@]1(CCS(=O)(=O)c1ccccc1)C(=O)NCCN1CCOCC1 .
Ans. 1.88

Qu. Can you look up the measured composite z-score of O=C1c2ccccc2[C@](Cc2ccccc2I)(C(=O)NCCN2CCOCC2)[C@H](c2ccc(CO)cc2)N1Cc1ccccc1 for me?
Ans. 0.783

// input: 7 compounds below; output: composite z-score for each
1. Cc1ccc(S[C@]2(C(=O)NC3CC3)CC(=O)N(Cc3ccccc3Cl)[C@@H]2c2ccc(CO)cc2I)cc1
2. C=CCOC(=O)[C@H]1[C@@H]2C(=O)O[C@@H](c3ccccc3)[C@@H](c3ccccc3)N2[C@@H](c2ccc(OCCOC(=O)[C@H]3C[C@H]4C(=O)N[C@@H](Cc5ccccc5)C(=O)N4[C@H]3c3cccc(OCCO)c3)cc2)[C@]12C(=O)Nc1ccc(I)cc12
3. C=C(COC)/C(=C/C[C@@H](OC(=O)c1ccncc1)c1ccc(CO)o1)c1cnc2ccccc2c1
4. C=C(CCCC)/C(=C/C[C@@H](OC(=O)c1ccncc1)c1cccc(OCCO)c1)c1cnc2ccccc2c1
5. CCCCN1CC=CC23O[C@@H]4C=CCOC(=O)[C@@H]4[C@H]2C(=O)N(CCCO)[C@@H]3C1=O (stereo partly drawn)
6. CCCC[C@@H]1C[C@H]1[C@@H](NC(=O)c1ccccc1)c1ccc(Cl)cc1
7. NCCCCCCNC(=O)[C@H]1C[C@H]2C(=O)N[C@@H](Cc3ccccc3)C(=O)N2[C@H]1c1ccc(O)cc1

Ans.
[0.132, 0.876, 1.03, 0.935, -0.0489, -0.657, 0.399]

---

- Test name: CREB reporter modulators under forskolin, primary screen, cell-based, PC12, CRE-LacZ reporter, forskolin-stimulated (AID 1146);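 also: PC12 cells with 6xCRE LacZ reporter stimulated by forskolin 10 µM; beta-galactosidase reporter signal reflecting CREB driven transcription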
- Condition notes: luminescence, 4.5 h, higher = more signal, called active from +8 up or from −8 down
Readout name: z-score
Numbers only.

Examples with their reported z-score follow.
Qu. Form field: reported z-score of O=C1O[C@@H](c2ccccc2)[C@@H](c2ccccc2)N2[C@@H](c3ccccc3OCCO)[C@]3(C(=O)Nc4ccc(C#CC5=CCCCC5)cc43)[C@@H](C(=O)NC[C@H](O)c3ccccc3)[C@H]12
Ans. -1.15

Qu. Query: z-score; subject: [N-]=[N+]=NCc1ccccc1C[C@]1(C(=O)NCC(O)CO)N=C(c2ccc(OCCCO)cc2)O[C@H]1c1ccccc1CN=[N+]=[N-] (stereo partly specified)
Ans. -1.32

Qu. // lookup z-score for COC(=O)[C@@]1(Cc2ccccc2)[C@H]2c3cc(C(=O)N4CCCC4)n(C[C@H](O)CO)c3C[C@H]2CN1C(=O)c1ccccc1
Ans. 0.881

Qu. For the compound shown here, CC(C)C(O)C1C=CC2C(=O)N(C)C(=O)C2N1N(c1ccccc1)c1ccccc1 (stereo unspecified) , give the reported z-score.
Ans. -0.136

Qu. So what's the measured z-score for this one? COc1ccc([Si](C)(C)[C@@H]2[C@@H](CC(=O)N3CCC[C@H]3CO)O[C@]3(C(=O)N(Cc4ccc(N5C(=O)c6cccc7cccc5c67)cc4)c4ccccc43)[C@H]2C)cc1
Ans. -0.0202

***
Qu. Consider the compound CC(=O)NCCCC[C@@H]1NC(=O)[C@@H]2C[C@H](C(=O)O)[C@H](c3ccc(O)cc3)N2C1=O and give its measured z-score.
Ans. 0.407

---

So I've got a bunch of molecules here, and I need their composite z-score values.
- Test system: XIP peptide (Xip251-270) binding
- Test name: small-molecule binders of XIP peptide, primary screen, biochemical, small-molecule microarray, fluorescence 635/667 nm, 0.1 µg/mL protein (AID 1182)
- Condition notes: fluorescent protein binding, 635 nm, higher = more signal, called active from +8 up or from −8 down
Activity calls are given as the source filed them.

Here are 10 molecules together with their reported answers.
Qu. State the recorded composite z-score for this entry: CCOC(=O)C1=CC[C@@H](c2ccccc2C(F)(F)F)N(S(=O)(=O)c2ccc(C)cc2)C1
Ans. 0.561 (inactive)

Qu. Endpoint output: composite z-score of O=C1O[C@@H](c2ccccc2)[C@@H](c2ccccc2)N2[C@@H](c3ccccc3OCCO)[C@]3(C(=O)Nc4ccc(C#CC5=CCCCC5)cc43)[C@@H](C(=O)NC[C@H](O)c3ccccc3)[C@H]12 . Value?
Ans. 0.409 (inactive)

Qu. What value of composite z-score has been reported for the following molecule? CN(C)C(=O)[C@]1(CCC(=O)OC(C)(C)C)N=C(c2ccc(OCCCO)cc2)O[C@@H]1c1ccccc1
Ans. 0.454 (inactive)

Qu. Please report the recorded composite z-score for COc1ccc(C#Cc2ccc3c(c2)[C@]2(C(=O)N3)[C@H](C(=O)N3CCc4cc(OC)c(OC)cc4C3)[C@H]3C(=O)O[C@H](c4ccccc4)[C@H](c4ccccc4)N3[C@@H]2c2ccc(O)cc2)cc1 .
Ans. 0.786 (inactive)

Qu. Tell me the measured composite z-score of COC(=O)C(CC#Cc1ccc2c(c1)[C@]1(C(=O)N2)[C@H](C(=O)O)[C@H]2C(=O)O[C@H](c3ccccc3)[C@H](c3ccccc3)N2[C@@H]1c1ccccc1OCCO)C(=O)OC , please.
Ans. 0.341 (inactive)

Qu. For the molecule shown here, CC(C)(C)OC(=O)CC[C@]1(C(=O)N2CCOCC2)N=C(c2ccc(OCCCO)cc2)O[C@H]1c1ccccc1 , give the reported composite z-score.
Ans. -0.0263 (inactive)

Qu. Reported composite z-score for CN(C)CCCCNC(=O)[C@H]1C[C@H]2C(=O)N[C@@H](CCCCN(C)C)C(=O)N2[C@H]1c1cccc(OCCO)c1 : what is it?
Ans. 1.64 (inactive)

Qu. Fill blank: measured composite z-score of the molecule COc1ccc([Si](C)(C)[C@H]2[C@H](CCn3cc([C@H](O)c4ccccc4)nn3)O[C@@]3(C(=O)N(Cc4ccc(N5CCOC5=O)cc4)c4ccccc43)[C@@H]2C)cc1 is ____.
Ans. -0.47 (inactive)

Qu. I am curious: what composite z-score value has been reported for COCCOC(=O)N1C(=O)[C@@]2(c3cc(C#Cc4ccc(OC)cc4)ccc31)[C@H](C(=O)N1CCCCCCC1)[C@H]1C(=O)O[C@H](c3ccccc3)[C@H](c3ccccc3)N1[C@@H]2c1ccc(O)cc1 ?
Ans. 1.73 (inactive)

Qu. Given the entry O=C1O[C@@H](c2ccccc2)[C@@H](c2ccccc2)N2[C@@H](c3ccccc3OCCO)[C@]3(C(=O)Nc4ccc(C#CCCO)cc43)[C@@H](C(=O)N3CCN(c4ncccn4)CC3)[C@H]12 , report its measured composite z-score.
Ans. 0.665 (inactive)

Provide each entry's composite z-score from the list below.
1. C=CC[C@@]12N=C(c3ccc(OCCCO)cc3)O[C@@H]1c1ccccc1N(CCS(=O)(=O)c1ccccc1)C2=O
2. Cc1c(NC(=O)/C(C#N)=C/C=C/c2ccc(N(C)C)cc2)c(=O)n(-c2ccccc2)n1C
3. COC(=O)[C@@]1(Cc2ccc(F)cc2)[C@H]2c3cc(C(=O)N4CCCC4)n(CCF)c3C[C@H]2CN1C(=O)c1ccccc1
4. COCCCNC(=O)[C@]1(Cc2ccccc2N=[N+]=[N-])N=C(c2ccc(OCCCO)cc2)O[C@@H]1c1ccccc1N=[N+]=[N-]
5. C=C(COC)/C(=C/C[C@@H](OC(=O)c1ccncc1)c1ccc(OCCO)cc1)c1cnc2ccccc2c1
6. O=C1NC(=O)C2C1C=CC(C(O)c1ccc3c(c1)OCO3)N2Nc1ccccn1 (stereo unspecified)
7. O=C1O[C@@H](c2ccccc2)[C@@H](c2ccccc2)N2[C@@H](c3ccc(O)cc3)[C@]3(C(=O)Nc4ccc(C#CC5=CCCCC5)cc43)[C@@H](C(=O)N3CCN(c4ncccn4)CC3)[C@H]12

Ans.
1: 2.13 (inactive); 2: 1.41 (inactive); 3: 2.43 (inactive); 4: -0.207 (inactive); 5: 0.39 (inactive); 6: 0.307 (inactive); 7: -0.168 (inactive)
